- Tested on: FXN mRNA
- protocol text: Screen of library of eighty epigenetic inhibitors in GM03816 FRDA diseased fibroblasts, FXN mRNA fold change
- Format: cell-based, human
- test conditions: Homo sapiens, Fibroblast, 72 h; GM03816 FRDA diseased fibroblasts; 5 uM inhibitor; 3 days of treatment; read-out: 3816 5 uM (FXN mRNA fold change)
recorded metric: fold induction at 5 µM
When you answer, write just the number.

Below: 2 compounds and their reported fold induction at 5 µM.
1. O=C(O)c1ccnc(C(=O)O)c1
0.888
2. CC(C(=O)Nc1cccc(/N=C/c2c(O)ccc3ccccc23)c1)c1ccccc1 (centres unmarked) [Salermide]
0.996

The compound identified as Nc1ncnc2c1ncn2[C@@H]1O[C@H](C[C@@H](N)CC[C@H](N)C(=O)O)[C@@H](O)[C@H]1O [Sinefungin, reference compound] registered its fold induction at 5 µM at 0.862

The compound identified as O=C(O)c1cccc2ccccc12 registered its fold induction at 5 µM at 0.869

The compound identified as O=C1CCc2c(ccc3ccccc23)O1 registered its fold induction at 5 µM at 0.939

The compound identified as O=c1oc2c(O)c(O)cc3c(=O)oc4c(O)c(O)cc1c4c23 registered its fold induction at 5 µM at 0.189

The compound identified as Oc1cc(O)c2cc(O)c(-c3cc(O)c(O)c(O)c3)[o+]c2c1 [Delphinidin chloride] registered its fold induction at 5 µM at 0.885

The compound identified as COc1cc2c(NC3CCN(C)CC3)nc(N3CCCN(C)CC3)nc2cc1OCCCN(C)C [UNC0224, reference compound] registered its fold induction at 5 µM at 0.656

----------
- Test system: FXN mRNA
- protocol text: Screen of epigenetic inhibitors in GM0321 normal fibroblasts, FXN RNA levels
- Type: cell-based, human
- test conditions: GM0321 normal fibroblasts, 1 uM inhibitor, 3 days of treatment
Counter-ions that a name gives are not always drawn.
// FXN mRNA fold change, 321B 1 uM lookup, one value per entry
When you answer, write just the number.

1. CN(C)CCCCC(=O)Nc1ccc(NC(=S)NC(=O)c2ccc(C(C)(C)C)cc2)cc1
1.23
2. CCOC(=O)c1ccnc(C(=O)OCC)c1
0.877
3. O=C(/C=C/c1cccc(C(=O)NO)c1)NO
0.7208
4. O=C(O)CCNc1cc(N2CCc3ccccc3CC2)nc(-c2cccnc2)n1 [GSK-J2 (sodium salt)]
1.063
5. Oc1cc(O)cc(/C=C/c2ccc(O)c(O)c2)c1
0.5008

The compound identified as O=C(O)c1ccc(O)c2ncccc12 registered its FXN mRNA fold change, 321B 1 uM at 0.9479

The compound identified as O=C(NCc1ccccc1)c1c(/N=C/c2c(O)ccc3ccccc23)sc2c1CCCC2 registered its FXN mRNA fold change, 321B 1 uM at 0.9963

----------
- Tested on: FXN mRNA
- protocol text: Screen of library of eighty epigenetic inhibitors in GM03816 FRDA diseased fibroblasts, FXN mRNA fold change
- Type: cell-based, human
- test conditions: Homo sapiens, Fibroblast, 72 h; GM03816 FRDA diseased fibroblasts; 5 uM inhibitor; 3 days of treatment; read-out: 3816 5 uM (FXN mRNA fold change)
Values of fold induction at 5 µM greater than or equal to 0.9 map to T; values below map to F.

Examples from the recorded data:
1. NC(=O)c1ccc(I)c([N+](=O)[O-])c1
F
2. CCCC(CCC)C(=O)O
T
3. O=c1ncccn1[C@@H]1O[C@H](CO)[C@@H](O)[C@H]1O
T
4. O=C(CCCCCCC(=O)NO)NO [Suberohydroxamic Acid]
T
5. NC(=O)c1cccnc1 [Nicotinamide]
F

Determine whether measured fold induction at 5 µM meets or exceeds 0.9 for O=C(O)CNC(=O)C(=O)O
T

Determine whether measured fold induction at 5 µM meets or exceeds 0.9 for C=C(C)[C@@H](CC=C(C)C)C[C@@]12C[C@@H](CC=C(C)C)C(C)(C)[C@@](CC=C(C)C)(C(=O)C(C(=O)c3ccc(O)c(O)c3)=C1O)C2=O
T

Determine whether measured fold induction at 5 µM meets or exceeds 0.9 for CCCCc1nc2cc(/C=C/C(=O)NO)ccc2n1CCN(CC)CC
F

----------
- Test system: FXN mRNA
- protocol text: Screen of epigenetic inhibitors in GM0321 normal fibroblasts, FXN RNA levels
- Assay type: cell-based, human
- test conditions: Homo sapiens, Fibroblast, 72 h; GM0321 normal fibroblasts, 1 uM inhibitor, 3 days of treatment; read-out: FXN mRNA fold change, 321B 1 uM
// fold induction at 1 µM lookup, one value per entry
When you answer, write just the number.

1. O=C(CCCCCCC(=O)NO)NO [Suberohydroxamic Acid]
0.959
2. C=C(C)[C@@H](CC=C(C)C)C[C@@]12C[C@@H](CC=C(C)C)C(C)(C)[C@@](CC=C(C)C)(C(=O)C(C(=O)c3ccc(O)c(O)c3)=C1O)C2=O
0.63
3. O=c1ncccn1[C@@H]1O[C@H](CO)[C@@H](O)[C@H]1O
1.07
4. NC(=O)c1ccc(I)c([N+](=O)[O-])c1
1.03

Let us move to another entry and its fold induction at 1 µM.
The compound identified as O=C1CCc2c(ccc3ccccc23)O1 registered its fold induction at 1 µM at 1.08

----------
- Tested on: FXN mRNA
- protocol text: Screen of epigenetic inhibitors in GM0321 normal fibroblasts, FXN RNA levels
- Assay type: cell-based, human
- test conditions: Homo sapiens, Fibroblast, 72 h; GM0321 normal fibroblasts, 1 uM inhibitor, 3 days of treatment; read-out: FXN mRNA fold change, 321B 1 uM
// fold induction at 1 µM lookup, one value per entry
When you answer, write just the number.

1) Nc1ncnc2c1ncn2[C@@H]1O[C@H](C[C@@H](N)CC[C@H](N)C(=O)O)[C@@H](O)[C@H]1O [Sinefungin, reference compound]
0.551
2) CC(C(=O)Nc1cccc(/N=C/c2c(O)ccc3ccccc23)c1)c1ccccc1 (centres unmarked) [Salermide]
1.06
3) O=C(O)c1ccnc(C(=O)O)c1 [2,4-Pyridinedicarboxylic Acid]
0.458
4) CCCC(CCC)C(=O)O [Valproic acid]
1.26
5) O=C(O)c1cccc2ccccc12 [1-Naphthoic Acid]
0.819
6) O=c1oc2c(O)c(O)cc3c(=O)oc4c(O)c(O)cc1c4c23 [Ellagic Acid]
0.675
7) Nc1ncnc2c1ncn2[C@@H]1O[C@H](CSCC[C@H](N)C(=O)O)[C@@H](O)[C@H]1O [S-Adenosylhomocysteine]
0.975
8) COc1cc2c(NC3CCN(C(C)C)CC3)nc(C3CCCCC3)nc2cc1OCCCN1CCCC1 [UNC0638, reference compound]
1.09

The molecule identified as NC(=O)c1cccnc1 [Nicotinamide] registered its fold induction at 1 µM at 0.687

The molecule identified as Nc1ncn([C@H]2C[C@H](O)[C@@H](CO)O2)c(=O)n1 [Decitabine] registered its fold induction at 1 µM at 1.15

----------
- System: FXN mRNA
- protocol text: Screen of library of eighty epigenetic inhibitors in GM03816 FRDA diseased fibroblasts, FXN mRNA fold change
- Assay type: cell-based, human
- test conditions: Homo sapiens, Fibroblast, 72 h, read-out: 3816 5 uM (FXN mRNA fold change)
// fold induction at 5 µM lookup, one value per entry
When you answer, write just the number.

Below: 4 molecules and their reported fold induction at 5 µM.
1) CN(C)NC(=O)CCC(=O)O [Daminozide]
0.881
2) N=C1NC(=O)/C(=C/c2ccc(O)cc2)S1
0.679
3) CCCC(=O)[O-].[Na+] [Sodium Butyrate]
1.16
4) Cc1ccc(C(=O)Nc2ccc(S(=O)(=O)O)c3cc(S(=O)(=O)O)cc(S(=O)(=O)O)c23)cc1NC(=O)c1cccc(NC(=O)Nc2cccc(C(=O)Nc3cc(C(=O)Nc4ccc(S(=O)(=O)O)c5cc(S(=O)(=O)O)cc(S(=O)(=O)O)c45)ccc3C)c2)c1
0.835

The molecule identified as CCC(=O)CCCCC[C@@H]1NC(=O)[C@H]2CCCCN2C(=O)[C@H]([C@@H](C)CC)NC(=O)[C@H](Cc2cn(OC)c3ccccc23)NC1=O registered its fold induction at 5 µM at 0.435

----------
- Tested on: FXN mRNA
- protocol text: Screen of epigenetic inhibitors in GM0321 normal fibroblasts, FXN RNA levels
- Format: cell-based, human
- test conditions: GM0321 normal fibroblasts, 1 uM inhibitor, 3 days of treatment
recorded metric: FXN mRNA fold change, 321B 1 uM
When you answer, write just the number.

Below: 5 compounds and their reported FXN mRNA fold change, 321B 1 uM.
1) CCOC(=O)CCNc1cc(N2CCc3ccccc3CC2)nc(-c2cccnc2)n1.Cl [GSK-J5 (hydrochloride)]
0.8597
2) CC(/C=C/C(=O)NO)=C\[C@@H](C)C(=O)c1ccc(N(C)C)cc1
1.023
3) CC(=O)Nc1ccc(NC(=S)NC(=O)c2ccc(C(C)(C)C)cc2)cc1
1.444
4) N#C/C(=C\c1ccc(-c2cc(Cl)ccc2Cl)o1)C(=O)Nc1cccc2ncccc12
1.115
5) Cl.N[C@@H]1C[C@H]1c1ccccc1 (racemic) [2-PCPA (hydrochloride)]
0.7149

The compound identified as O=C(CCCCCCC(=O)Nc1ccccc1)NO registered its FXN mRNA fold change, 321B 1 uM at 0.4256

The compound identified as NC(=O)[C@H](CCCN=C(N)CF)NC(=O)c1ccccc1 registered its FXN mRNA fold change, 321B 1 uM at 0.9152

The compound identified as NC(=O)c1cccc(N)c1 [3-amino Benzamide] registered its FXN mRNA fold change, 321B 1 uM at 1.089

The compound identified as Nc1ccccc1NC(=O)CCCCCCC(=O)Nc1ccccc1 registered its FXN mRNA fold change, 321B 1 uM at 1.03
